Target: full length active recombinant SYK enzyme (Homo sapiens, UniProt P43405)
Construct: full length active recombinant SYK enzyme (Millipore, Calif.)
Assay: Inhibition of Syk tyrosine phosphorylation activity (LANCE TR-FRET kinase assay)
Procedure: Inhibition of Syk Tyrosine Phosphorylation Activity Potency of candidate molecules for inhibiting Syk tyrosine phosphorylation activity is assessed by measuring the ability of a test compound to inhibit Syk-mediated tyrosine phosphorylation of a Syk-specific substrate. SYK tyrosine phosphorylation activity is measured using the LANCE™ Technology developed by Perkin Elmer Life and Analytical Sciences (Boston, Mass.). […]
pIC50: −log10 of the molar value.
VALUE TYPE: pIC50

Please review the following examples before continuing.
NC(=O)c1cc(C(N)=O)c(N[C@@H]2CCCC[C@@H]2N)nc1Nc1cccc(-n2nccn2)c1 | 6.00 to 7.00
NC(=O)c1cc(F)c(N[C@@H]2CCCC[C@@H]2N)nc1Nc1cccc(OC2CCOCC2)c1 | 8.00 to 9.00

Give its pIC50 value. Item: NC(=O)c1ccc(N[C@@H]2CCCC[C@@H]2N)nc1Nc1ccc2cccnc2c1
8.00 to 9.00

I am curious: what pIC50 value has been reported for Cc1cc(Nc2nc(N[C@@H]3CCCC(F)(F)[C@@H]3N)c(F)cc2C(N)=O)sn1 ?
6.00 to 7.00

----------
Biological target: full length active recombinant SYK enzyme (Homo sapiens, UniProt P43405)
Construct: full length active recombinant SYK enzyme (Millipore, Calif.)
Test: Inhibition of Syk tyrosine phosphorylation activity (LANCE TR-FRET kinase assay)
pIC50: −log10 of the molar value.
Quick reference: pIC50 of the listed items.

Reference set, count: 4
CC[C@@H](Nc1nc(Nc2cnn3ccccc23)c(C(N)=O)cc1F)C(N)=O | 7.00 to 8.00
Cc1cc(F)cc(Nc2nc(N[C@@H]3CCCC(F)(F)[C@@H]3N)c(F)cc2C(N)=O)c1 | 7.00 to 8.00
CC[C@H](CN)Nc1nc(Nc2ccc3ncsc3c2)c(C(N)=O)cc1F | 8.00 to 9.00
Cc1cc(F)cc(Nc2nc(N[C@@H]3CCCC[C@@H]3N)c(F)cc2C(N)=O)c1 | > 9.00

Read the next record carefully.
What value of measured pIC50 is listed for NC(=O)c1cc(F)c(N[C@H]2[C@@H](N)CCCC2(F)F)nc1Nc1cncc(F)c1 ?
7.00 to 8.00

----------
Parameter IC50: see the listing below.
Molecular target: full length active recombinant SYK enzyme (Homo sapiens, UniProt P43405)
Construct: full length active recombinant SYK enzyme (Millipore, Calif.)
Test: Inhibition of Syk tyrosine phosphorylation activity (LANCE TR-FRET kinase assay)
Procedure: Inhibition of Syk Tyrosine Phosphorylation Activity Potency of candidate molecules for inhibiting Syk tyrosine phosphorylation activity is assessed by measuring the ability of a test compound to inhibit Syk-mediated tyrosine phosphorylation of a Syk-specific substrate. SYK tyrosine phosphorylation activity is measured using the LANCE™ Technology developed by Perkin Elmer Life and Analytical Sciences (Boston, Mass.). […]

Cc1ccc(Nc2nc(N[C@@H]3CCCC[C@@H]3N)c(F)cc2C(N)=O)cc1F | 0.001 to 0.01 µM
NC(=O)c1cc(F)c(N[C@@H]2CCCC[C@@H]2N)nc1Nc1cc(F)cc(Cl)c1 | 0.001 to 0.01 µM
C[C@H](N)CNc1nc(Nc2cccc(-n3nccn3)c2)c(C(N)=O)cc1F | 0.001 to 0.01 µM

What value of IC50 on full length active recombinant SYK enzyme (Homo sapiens, UniProt P43405) does NC(=O)c1cc(F)c(N[C@@H]2CCCC[C@@H]2N)nc1Nc1ccc(Cl)cc1 have?
0.01 to 0.1 µM
